biological target: CYP2C19 (Homo sapiens); construct: tissue Corning Gentest BD UltraPool HLM 150; host or cells: pooled human liver microsomes; experiment: CYP inhibition, cocktail of probe substrates in pooled human liver microsomes: omeprazole 5-hydroxylation; format: in vitro ADME; details: pooled HLMs, substrate 20 μM, 15 min preincubation without NADPH, read-out: IC50 With preincubation Without NADPH
Sequence (P33261 whole entry): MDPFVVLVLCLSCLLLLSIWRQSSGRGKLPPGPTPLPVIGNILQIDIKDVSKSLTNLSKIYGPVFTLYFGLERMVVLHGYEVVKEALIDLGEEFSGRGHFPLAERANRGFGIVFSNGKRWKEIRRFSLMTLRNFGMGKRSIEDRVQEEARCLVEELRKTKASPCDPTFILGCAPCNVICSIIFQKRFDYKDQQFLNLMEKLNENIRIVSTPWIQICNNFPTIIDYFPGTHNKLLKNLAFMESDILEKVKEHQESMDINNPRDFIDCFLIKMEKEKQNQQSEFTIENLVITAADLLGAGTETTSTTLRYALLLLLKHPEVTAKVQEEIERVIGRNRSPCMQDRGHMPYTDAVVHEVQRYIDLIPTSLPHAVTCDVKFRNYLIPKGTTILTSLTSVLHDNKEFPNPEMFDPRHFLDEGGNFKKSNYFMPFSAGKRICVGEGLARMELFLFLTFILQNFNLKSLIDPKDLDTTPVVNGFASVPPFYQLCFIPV
pIC50: −log10 of the molar value.
Property Name: pIC50

Prompt line: If you can, please state the reported pIC50 value of O=c1ccc2c(ccc3ccoc32)o1 [Bakuchicin] .
Response line: < 4.00

---

target: CYP2B6 (Homo sapiens, UniProt P20813); construct: tissue Corning Gentest BD UltraPool HLM 150; host or cells: pooled human liver microsomes; assay: CYP inhibition, cocktail of probe substrates in pooled human liver microsomes: bupropion hydroxylation; assay type: in vitro ADME; conditions: pooled HLMs, substrate 50 μM, 15 min preincubation with NADPH, read-out: IC50 With preincubation with NADPH
Sequence (P20813 whole entry): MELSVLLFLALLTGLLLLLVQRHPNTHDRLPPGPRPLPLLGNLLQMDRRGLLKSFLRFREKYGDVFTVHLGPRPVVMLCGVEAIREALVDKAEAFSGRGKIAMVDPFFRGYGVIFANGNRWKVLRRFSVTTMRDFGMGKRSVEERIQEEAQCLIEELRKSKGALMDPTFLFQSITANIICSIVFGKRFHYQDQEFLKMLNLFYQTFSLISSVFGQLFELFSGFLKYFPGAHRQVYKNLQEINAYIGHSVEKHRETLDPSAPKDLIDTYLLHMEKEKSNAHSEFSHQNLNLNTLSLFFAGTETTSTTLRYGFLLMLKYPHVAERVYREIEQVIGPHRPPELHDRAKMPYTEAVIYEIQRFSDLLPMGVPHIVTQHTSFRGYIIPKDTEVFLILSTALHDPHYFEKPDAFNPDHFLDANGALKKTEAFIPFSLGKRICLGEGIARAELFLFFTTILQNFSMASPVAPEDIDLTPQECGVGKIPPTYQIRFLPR
Property Name: IC50 (µM)
// note: answer is a bare numeric in µM

Prompt line: If you can, please state the reported IC50 value of "O=c1ccc2c(ccc3ccoc32)o1" .
Response line: 11.5
